Every entry's value here was drawn from paper PMC12802937.

TEST TARGET: T1, Bre1-LR K534E (budding yeast, UniProt Q07457 227-700, K534E)
T1 construct: source: E. coli BL21 Rosetta (DE3), purified (Ni-NTA, heparin, gel filtration)
T1 sequence (looked up): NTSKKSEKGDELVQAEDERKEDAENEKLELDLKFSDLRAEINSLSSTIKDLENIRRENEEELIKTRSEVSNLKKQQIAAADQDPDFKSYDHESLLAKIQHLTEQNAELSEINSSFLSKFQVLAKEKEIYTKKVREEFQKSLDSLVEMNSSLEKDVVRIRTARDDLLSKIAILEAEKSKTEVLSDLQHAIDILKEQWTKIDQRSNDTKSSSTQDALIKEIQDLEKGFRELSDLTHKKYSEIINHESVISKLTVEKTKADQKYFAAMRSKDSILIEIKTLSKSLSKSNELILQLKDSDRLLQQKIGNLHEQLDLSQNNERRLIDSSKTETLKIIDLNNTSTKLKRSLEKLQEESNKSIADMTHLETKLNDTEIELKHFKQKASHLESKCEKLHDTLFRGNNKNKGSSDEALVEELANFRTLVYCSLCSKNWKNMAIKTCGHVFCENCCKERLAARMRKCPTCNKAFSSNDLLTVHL
EXPERIMENT NOTES: ITC; Lge1-CT (50–60 μM) injected into Bre1-LR (15 μM); 25°C, 20 mM TRIS (pH 7.5), 200 mM sodium chloride
CONDITION NOTES: both partners purified

- BINDER: "Lge1-CT (Lge1 residues 261–332), intein-chitin binding domain (CBD) tag construct (domain or fragment, budding yeast, UniProt Q02796 261-332, looked up, Lge1, budding yeast, residues 261-332; residues 268–331 resolved in the electron density; the intein-CBD tag is named on the protein in the pull-down; also called intein-CBD-fused Lge1-CT; intein-CBD-tagged Lge1-CT; source: E. coli BL21 Rosetta (DE3): cleared cell extract on chitin resin (pull-down); purified (chitin, heparin, gel filtration) for ITC and SPR; co-purified with Bre1-LR for the …) KNVKKTNNTESECEKAREVFKESDSIDSALEELNLKINSNELELRLLNNQCDKHALNIQLTQEKLDSLLLMQ"
  Kd: "36.9 nM"
